Kindly supply the reported cell viability values for the records listed here.
System: NOMO1
experimental details: cell viability relative to DMSO control; higher = less cytotoxic
test context: RPMI 5 mM glucose + 10% dialyzed FBS; 48 h; 0.00234 µM
Respond with the bare value in %.

Q) # lookup: cell viability of C\C1=C\C(=O)C2=C(C=CC=C2)C1=O
A) 117

Q) # lookup: cell viability of C1CCC(C(CC2CCCCN2)C2CCCCC2)CC1 (stereo unspecified)
A) 108

Q) # lookup: cell viability of COc1cc(Nc2ncc(F)c(Nc3ccc4c(n3)NC(=O)C(C)(C)O4)n2)cc(OC)c1OC
A) 99.7

Q) # lookup: cell viability of C\C1=C\N([C@H]2C[C@H](N=[N+]=[N-])[C@@H](CO)O2)C(=O)NC1=O
A) 110

Q) # lookup: cell viability of C[S+](=O)([O-])N(Cc1ccco1)CC(O)Cn1c2ccccc2c2ccccc21 (stereo unspecified)
A) 89.2

Q) # lookup: cell viability of CC(C)n1nc(-c2ccc3oc(N)nc3c2)c2c(N)ncnc21
A) 74.5

These entries and their values trace back to the supplement of paper PMC11451515.
